Source of measurements: ChEMBL document CHEMBL1201862

System: Hs-578T
Assay: NCI tumour cell line growth inhibition, 48 h
Activity calls are given as the source filed them. No stated cut-off is given here; in the data, active = GI50 up to about 1.1 µM and inactive = higher.
Pick from true (active), false (inactive) when you respond.

Worked cases, answers included:
CCc1nc(N)nc(N)c1-c1ccc(Cl)c([N+]#N)c1    false
Cc1ccc(-c2c3nc(c(-c4ccc(C)cc4)c4ccc([nH]4)c(-c4ccc(OCC5COC(C)(C)O5)cc4)c4nc(c(-c5ccc(C)cc5)c5ccc2[nH]5)C=C4)C=C3)cc1 (centres undefined)    false
Cc1ccc(Cc2n[nH]c(=O)n2N2C(=O)c3ccccc3C2=O)cc1    false

Request: Recorded test call requested for `O=[N+]([O-])c1ccc(-c2nc3cc(Cl)ccc3[nH]2)cc1`
Result: false

Request: What outcome does the record of this test show for CNc1ccc([S+]([O-])Nc2ccc(OC)cc2)cc1 (centres undefined) ?
Result: false

Request: Assay result, entry `Cc1cc(C)nc(NS(=O)(=O)c2ccc(NC(=O)NC(F)(F)F)cc2)n1` — outcome?
Result: false

Request: // return assay outcome for `CO/N=C(\C(=O)Nc1cncs1)c1csc(N)n1`
Result: false

Request: Test call for this molecule, please: `Clc1ccc2oc(CCC3CCCCC3)nc2c1`
Result: false

Request: Dear all, I need the recorded test outcome for `Nc1cc2c3c(cccc3c1)NC2=O` , thank you.
Result: false

Request: What did the test return for `O=C(C/N=C(\CN(c1ccccc1)c1ccccc1)Oc1ccc(Cl)cc1Cl)n1ccnc1` ?
Result: false

Request: Could you please tell me the result logged for `CC(C)=C[C@@H]1O[C@H](O)[C@@H]([C@H]2CC[C@@]3(C)[C@@H]4CC[C@H]5C(C)(C)C(=O)CC[C@@]56C[C@@]46CC[C@]23C)[C@@H]1O` in this assay?
Result: false

Request: Outcome? Cn1c2c(c3ccccc31)CCN=C2C1CCCOC1=O (centres undefined)
Result: false

Request: Which outcome did this test record for the molecule `O=c1[nH]nc(-c2ccccc2)c2[nH]c(-c3ccccc3)cc12` ?
Result: false

Request: Which result was noted for this molecule in the test: `O=C(N/N=C(COc1ccc(Cl)cc1)\N=C\c1ccncc1)c1ccncc1`
Result: false

Request: Recorded test call requested for CCOC1OC(C)(C=C(C#N)C#N)CCC1C (centres undefined)
Result: false

Request: Lab log entry: `CC(C)=CCC1=C(OCC(=O)O)C(=O)c2ccccc2C1=O` — outcome as called in the assay?
Result: false

Request: Hi, do you know how `O=c1[nH]/c(=C/c2cccs2)c(=O)[nH]/c1=C/c1ccc(OCc2ccccc2)cn1` came out in this test?
Result: true

Request: For this molecule, state the assay outcome: COc1cc(/C=C2\C(=O)N(c3ccccc3Cl)C(c3ccccc3)S2(=O)=O)cc(OC)c1OC (centres undefined)
Result: false

Request: Outcome? `Cc1[nH]c2ccccc2c1/C=N/NC(=O)c1cccc(I)c1`
Result: false

Request: Short answer needed: outcome of this test for `CCOC(=O)c1c(N2CCCC2)ncn(Cc2ccccc2)c1=S` ?
Result: false

Request: Short answer needed: outcome of this test for `COc1cc(/N=C(\N)N=C(N)N)c2ncccc2c1` ?
Result: false

Request: What is the recorded call for this molecule in the test? `Cc1cc(C)c2c(O)cc(-c3ccc(Cl)cc3)nc2n1`
Result: false

Request: Which outcome was entered for the molecule CC[C@@]1(O)C(=O)OCc2c1cc1n(c2=O)Cc2c-1nc1ccccc1c2/C=N\NC(=O)C(N)Cc1c[nH]c2ccccc12 (some centres undefined) in this test?
Result: false

Request: Dear colleague, could you share the recorded outcome for `NNC1=N/C(=C\c2ccccc2O)C(=O)N1` when you have a moment?
Result: false

Request: Which outcome was entered for the molecule CC1(C(=O)O)CCCC1C(=O)O (centres undefined) in this test?
Result: false

Request: In this assay, the call recorded for `Cc1ccc(-c2nc(N/N=C/C=C/c3ccccc3)c3ccccc3n2)cc1` was what?
Result: false
